recordedMetric: melting point

Reference set, count: 4
compound: Cc1ncc2n1-c1ccc(C(C)O)cc1C(c1ccccc1)=NC2 (stereo not given)
recordedMetric: melting point
reading: 223 to 225 °C

compound: CCn1cc(C(=O)O)c(=O)c2cc(F)c(N3CCNC(c4ccsc4)C3)cc21 (stereo not given)
recordedMetric: melting point
reading: 198 to 200 °C

compound: CCOC(Cc1ccc(OCc2nc(C(C)(C)C)oc2C)c2ccsc12)C(=O)O (stereo not given)
recordedMetric: melting point
reading: 179 to 180 °C

compound: CC(=O)c1ccc(-n2c(-c3sc(Nc4ccccc4)nc3-c3ccccc3)nc3ccccc3c2=O)cc1
recordedMetric: melting point
reading: 223 to 225 °C

Q: Give the measured melting point of O=C(CBr)c1ccc(Sc2ccccc2)cc1 .
A: 46 °C

// provenance: a melting point compilation (Tetko et al.; mined from patent text by program, amines drawn as free bases though some values may be those of a salt)
